Target: T1, Canine IL-31RA ECD-10His (canine, biotin-labeled in the Octet assay (site not stated))
T1 construct: The ELISA and Octet protocols say only 'IL-31RA' or 'canine IL-31RA'; also called cIL-31RA; canine IL-31 receptor alpha extracellular domain, HIS-tagged
T1 chain: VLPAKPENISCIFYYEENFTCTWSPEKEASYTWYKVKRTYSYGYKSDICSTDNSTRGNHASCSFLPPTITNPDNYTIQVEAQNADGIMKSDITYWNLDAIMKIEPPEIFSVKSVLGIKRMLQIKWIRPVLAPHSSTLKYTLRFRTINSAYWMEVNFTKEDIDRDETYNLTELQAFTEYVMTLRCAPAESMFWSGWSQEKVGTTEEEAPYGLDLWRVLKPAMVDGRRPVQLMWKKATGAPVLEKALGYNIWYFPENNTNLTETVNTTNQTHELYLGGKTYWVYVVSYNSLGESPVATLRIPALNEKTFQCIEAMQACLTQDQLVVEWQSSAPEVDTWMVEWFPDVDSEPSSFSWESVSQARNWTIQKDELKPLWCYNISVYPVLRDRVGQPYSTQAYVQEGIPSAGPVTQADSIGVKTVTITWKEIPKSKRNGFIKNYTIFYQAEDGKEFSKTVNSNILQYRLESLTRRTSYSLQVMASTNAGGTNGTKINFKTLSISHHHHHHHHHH
Test: ELISA on coated canine IL-31RA, anti-canine IgG Fc-HRP (Example 11), the unit is that of the x axis 'Ab Log Conc. (ng/mL)'
Task for the reader: assign each of the following binders its reported EC50.
Give bare numbers, in ng/mL.

For orientation, consider the following solved cases.
Chimeric 51F8 (antibody, V domains shown, canine constant regions not specified; also called murine-canine chimeric 51F8) VH: EVQLQQSVAELVRPGASVKLSCTASGFNIKNTFIHWVKQRPEQGLEWIGRIDPANGNTKYAPKFQGRATLTADTSSNTAYLQLSSLTSEDTAIYYCARYYYVSSYFDVWGTGTTVTVSS VL: SIVMTQTPKFLLVSAGDRVTITCKASQSVTNDVTWYQQKPGQSPKLLIFSASNRYTGVPDRFTGSGYGTDFTFTISTVQAEDLAVYFCQQDYSSPWTFGGGTKLEIK; 3.42
Chimeric 85C10 (antibody, V domains shown, canine constant regions not specified; also called murine-canine chimeric 85C10) VH: EFQLQQSGPELVKPGASVKISCKASGYSFTDYSINWVKQSNGKSLEWIGVINPNYGTSSHNQKFKGKATMTVDQSSSTAYMQLNSLTSEDSAVYYCARALDDYYFYWYFDVWGIGTTVTVSS VL: DVVMTQTPLSLPVSLGDQASISCRSSQSLVHTNGNTYLHWYLQKPGQSPKLLIYKVSNRFSGVPDRFSGSGSGTDFTLKISRVEAEDLGVYFCSQTTHVPLTFGAGTKLELK; 2.58

For the next question, use this binder.
## Input For Chimeric 224G3 (antibody, V domains shown, canine constant regions not specified; also called m224G3 Chim) VH: EVQLVESGGDLVKPGGSLKLSCAASGFTFSSYGMSWVRQTPDKRLEWVATISNGGSYTYYPDSVKGRFTISRDNAKNTLYMQMSSLKSEDTAMYYCARNEPPDYWGQGTSVTVSS VL: QIVLTQSPAIMSASLGERVTMTCTASSSVGSSYLHWYQQKPGSSPKLWIYDTSNLASGVPVRFSGSGSGTSYSLTISSMEAEDAATYYCHQYHRSPYTFGGGTKLEIK , what is its reported EC50?
## Output 0.383

Taken from patent US20250340654A1.
